Source listed as the supplement of paper PMC11208160.

# Protocol: recombinant UMI read abundance after kanamycin selection (control-corrected) (log10(CPM+1)); higher = more efficient recombination; extreme values may be limits of the assay; sequences stand for … in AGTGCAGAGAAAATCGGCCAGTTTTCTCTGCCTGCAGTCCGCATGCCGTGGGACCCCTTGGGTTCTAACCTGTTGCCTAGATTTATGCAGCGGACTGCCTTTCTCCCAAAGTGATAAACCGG…AGGTTGGTTTCACT; site = the 11-nt donor

{"Biopolymer Sequence": "GTCAAACCATGGACCGGTTTTCCCGGTAATCCGTATTTGGT (site GTCAAACCTAC)", "recombinant UMI read abundance (log10)": 0}
{"Biopolymer Sequence": "ACCTAGGCATGGACCGGTTTTCCCGGTAATCCGTATTTGGG (site ACCTAGCCTCC)", "recombinant UMI read abundance (log10)": 0.0364}
{"Biopolymer Sequence": "CGGAGATCATGGACCGGTTTTCCCGGTAATCCGTATTTGCT (site CGGACATCTAG)", "recombinant UMI read abundance (log10)": 0}
{"Biopolymer Sequence": "CAGAGAGCATGGACCGGTTTTCCCGGTAATCCGTATTTGTA (site CAGAGAGCTTA)", "recombinant UMI read abundance (log10)": 2.94}
{"Biopolymer Sequence": "TTTACGGCATGGACCGGTTTTCCCGGTAATCCGTATTTGCT (site TTTACGGCTAG)", "recombinant UMI read abundance (log10)": 0.234}
{"Biopolymer Sequence": "ACGGAGACATGGACCGGTTTTCCCGGTAATCCGTATTTGCA (site ACGGAGACTTG)", "recombinant UMI read abundance (log10)": 2.64}
{"Biopolymer Sequence": "TGTGCCCCATGGACCGGTTTTCCCGGTAATCCGTATTTGTA (site TGTCCCCCTTA)", "recombinant UMI read abundance (log10)": 0.0113}
{"Biopolymer Sequence": "TGACCGACATGGACCGGTTTTCCCGGTAATCCGTATTTGAT (site TGACCGACTAT)", "recombinant UMI read abundance (log10)": 0.561}
{"Biopolymer Sequence": "TCGTTAGCATGGACCGGTTTTCCCGGTAATCCGTATTTGTG (site ACGTTAGCTCA)", "recombinant UMI read abundance (log10)": 0.00928}

---

# Protocol: recombinant barcode read abundance after kanamycin selection (control-corrected) (log10(CPM+1)); higher = more efficient recombination; sequences stand for … in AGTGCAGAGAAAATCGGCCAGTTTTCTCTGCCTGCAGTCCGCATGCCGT…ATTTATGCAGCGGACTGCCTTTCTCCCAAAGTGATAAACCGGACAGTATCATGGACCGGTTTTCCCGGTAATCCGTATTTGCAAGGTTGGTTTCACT; site = the 11-nt target
Use 0.04 as the dividing line for recombinant barcode read abundance (log10), with the line itself on the yes (1) side and lower values as no (0).

{"Biopolymer Sequence": "AAACATGGGTGGGTTCTAACCTGTTGCCTCC [AAACATGCTAG_LTGcore_GG_RTGcore_GG] (site AAACATGCTAG) (LTG core: GG, RTG core: GG)", "Label Class": "yes (1)"}
{"Biopolymer Sequence": "TCTACCCCTTGGGTTCTAACCTGTTGCTGCG [TCTACCCCTCA_LTGcore_CT_RTGcore_CG] (site TCTACCCCTCA) (LTG core: CT, RTG core: CG)", "Label Class": "no (0)"}
{"Biopolymer Sequence": "TCGCGACCTTGGGTTCTAACCTGTTGCCGCT [TCGCGACCTCG_LTGcore_CT_RTGcore_AG] (site TCGCGACCTCG) (LTG core: CT, RTG core: AG)", "Label Class": "yes (1)"}
{"Biopolymer Sequence": "CGAGCCCCTTGGGTTCTAACCTGTTGCTGGC [CGAGCCCCTCA_LTGcore_CT_RTGcore_GC] (site CGAGCCCCTCA) (LTG core: CT, RTG core: GC)", "Label Class": "yes (1)"}
